molecular target: DRB1*0802 (DR8w2) (Homo sapiens, UniProt P01903+P01911, A100R/A103L/A169T/F76Y/H45Y/I96F/K41T/L162R/M171V/P40S/Q125H/Q178H/Q39Y/Q99D/R218S/R42G/S66Y/V115G/W38E); construct: Epstein-Barr virus (EBV) transformed homozygous cell lines were used as sources; endogenous in cells; host or cells: OLL (EBV-transformed homozygous B cell line); test: biochemical; type: binding; details: Binding Capacity (IC 50% nM) Other Alleles DR8w2
assay.endpoint: IC50

Ask: Quick one: IC50 for CC(C)C[C@H](NC(=O)CNC(=O)[C@H](C)NC(=O)[C@H](CC(C)C)NC(=O)[C@@H](NC(=O)[C@H](CO)NC(=O)[C@@H](NC(=O)[C@H](C)NC(=O)[C@H](CC(C)C)NC(=O)[C@H](CCCCN)NC(=O)[C@H](Cc1ccc(O)cc1)NC(=O)[C@@H](N)CCCCN)[C@@H](C)O)C(C)C)C(=O)N[C@@H](CC(C)C)C(=O)NCC(=O)N[C@@H](CC(N)=O)C(=O)O [Peptide F107.09] ?
Reply: < 1000 nM
